# ASSAYED_TARGET: T1, human mutCALR on BaF3 cells stably expressing human MPL and human mutCALR (MPL-mutCALR cells) (human)
# T1 construct: also called mutant calreticulin
# T1 chain: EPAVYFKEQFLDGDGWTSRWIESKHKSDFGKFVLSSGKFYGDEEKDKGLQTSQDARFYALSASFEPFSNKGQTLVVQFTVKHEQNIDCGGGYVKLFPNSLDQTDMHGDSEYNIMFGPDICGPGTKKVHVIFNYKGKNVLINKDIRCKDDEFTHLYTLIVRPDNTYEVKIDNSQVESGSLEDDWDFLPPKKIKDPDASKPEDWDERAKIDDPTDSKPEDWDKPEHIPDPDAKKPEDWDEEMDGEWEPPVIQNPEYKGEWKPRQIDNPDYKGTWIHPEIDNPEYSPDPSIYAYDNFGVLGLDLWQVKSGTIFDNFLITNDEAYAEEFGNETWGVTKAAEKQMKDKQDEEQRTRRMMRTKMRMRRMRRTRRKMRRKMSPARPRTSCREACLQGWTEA
# TEST_SUMMARY: flow cytometry, BaF3 MPL-mutCALR cells
QUANTITY_NAME: EC50

Field: example entries. Status: answers known.
# BINDER, EC50
measured = [
    ("anti-mutCALR antibody clone 50 (antibody, human IgG1, lambda, V domains shown, human IgG1) VH: QMQLVQSGAEVKKPGSSVKVSCKASGGTFSSYAISWVRQAPGQGLEWMGGIIPIFGTANYAQKFQGRVTITADESTSTAYMELSSLRSEDTAVYYCASSPLRGSGWYWHYYYGMDVWGQGTTVTVSS VL: SYVLTQPPSVSVAPGKTARITCGGNNIGTKSVHWYQQKPGQSPVLVIYQDRKRPSGIPERFSGSNSGNTATLTISGTQAMDEADYYCQVWDSSTEVFGGGTKLTVLG", "0.8 mg/L"),
    ("anti-mutCALR antibody clone 34 (antibody, human IgG1, lambda, V domains shown, human IgG1) VH: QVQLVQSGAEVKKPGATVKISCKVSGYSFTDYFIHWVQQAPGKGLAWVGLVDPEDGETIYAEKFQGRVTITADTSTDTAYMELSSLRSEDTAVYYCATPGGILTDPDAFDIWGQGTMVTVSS VL: QSALTQPASVSGSPGQSITISCTGTSSDVGGYNYVSWYQQHPGKAPKLMIYEVSNRPSGVSNRFSGSKSGNTASLTISGLQAEDEADYYCSSYTSSSTYVFGTGTKVTVLG", "0.02 mg/L"),
]

Consider the additional binder presented here.
Identify measured EC50 corresponding to anti-mutCALR antibody clone 83 (antibody, human IgG1, lambda, N297A, V domains shown) VH: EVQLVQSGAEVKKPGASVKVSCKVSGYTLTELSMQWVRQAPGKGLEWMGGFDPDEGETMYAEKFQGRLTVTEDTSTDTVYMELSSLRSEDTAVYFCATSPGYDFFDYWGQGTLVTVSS VL: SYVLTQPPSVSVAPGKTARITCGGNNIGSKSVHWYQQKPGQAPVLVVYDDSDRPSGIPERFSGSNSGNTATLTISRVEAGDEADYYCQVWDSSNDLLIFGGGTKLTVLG 0.0034 mg/L
